Assay: Solubility of the compound in DMSO/tyrode solution
Assay type: physicochemical
quantity-name: solubility (µg/mL)

COc1cc(-c2oc3cc(OC)c(O)c(O)c3c(=O)c2OC)ccc1O : 14.1
COc1ccc2c(=O)c(OC)c(-c3ccc(O)c(OC)c3)oc2c1 : 17.1

---

Species: Oryctolagus cuniculus
Assay: Activation of skeletal myosin S1 ATPase in rabbit psoas muscle at 10 uM in presence of actin thin filament complex
Format: tissue-based
Active and inactive are the calls of the source. The rule behind the calls is not given here.
quantity-name: Activity

Worked examples, 5 compounds total:
COc1c(-c2cccc(O)c2)oc2cc(Cl)ccc2c1=O : inactive
COc1c(-c2ccc(O)cc2)oc2cc(Cl)ccc2c1=O : inactive
COc1cc(-c2oc3cc(OC)c(O)c(O)c3c(=O)c2OC)ccc1O [CHRYSOSPLENOL C] : inactive
COc1ccc2c(=O)c(OC)c(-c3ccc(O)c(OC)c3)oc2c1 : inactive
COc1cc(-c2oc3cc(Cl)ccc3c(=O)c2OC)ccc1O : inactive

Note to self: Activity recorded for `COc1ccc2c(=O)c(OC)c(-c3ccc(O)cc3)oc2c1` was inactive
